Listed compounds paired with reported growth
# Test system: HOP-92 NSCLC
# PROTOCOL_SUMMARY: NCI-60 one-dose screen, 48 h (100 = growth as untreated, 0 = no growth, -100 = all killed)
# TEST_CONDITIONS: 10 µM unless noted
This is part of a sample that, as a whole, favours compounds with a hit. Of some 83,000 tested, about 20% had one in any assay.
Respond with the bare value in %.

Completed entries (count: 2):
| RECORD_SMILES | OBSERVED_MEASUREMENT |
| --- | --- |
| CC(=O)O[C@]1(C)C[C@H](O)[C@]2(O)C=CO[C@H](O[C@@H]3O[C@H](CO)[C@@H](O)[C@H](O)[C@H]3O)[C@@H]21 | 129 |
| CC(C)n1c(NCCc2ccc(O)c(O)c2)nc2c1c(=O)n(C)c(=O)n2C | 83.7 |

Consider the record given below.
Prompt: What value of growth has been recorded for this entry: CNC(=O)c1cccc2cc(Oc3ccnc4cc(OCC5(N)CC5)c(OC)cc34)ccc12
Completion: 64.6
